Recorded values, source ChEMBL document CHEMBL1124057.

Please go through the items and note down their ED.
- Species on record: Rattus norvegicus
- experimental-protocol: Antagonist activity expressed as the effective dose that reduces the response to 2x units to equal response to 1x units of agonist (vasopressor assay)
- Assay type: functional
*1 amine or outer side, *2 acyl side, *3 side chain or, on linkers, in order; H or OH if unused. Where a SMILES comes first, the peptide text is derived from it. Bridges are numbered along the chain shown (N, C = ends). [ ]: non-standard residue; d: D form. X5 = CN1CCC(CC(=O)[C@H](Cc2ccc(O)cc2)N([C@@H](Cc2ccccc2)C(=O)[*:2])[*:1])(S[*:3])CC1; X1 = CC(C)(C)C1CCC(CC(=O)[*:1])(S[*:2])CC1; X4 = O=C(CC1(S[*:2])CCC(c2ccccc2)CC1)[*:1]; X3 = CN1CCC(CC(=O)[*:1])(S[*:2])CC1
Numbers only, in nmol/kg.

COc1ccc(C[C@@H]2NC(=O)CC3(CCC(C(C)(C)C)CC3)SSC[C@@H](C(=O)N3CCC[C@H]3C(=O)N[C@@H](CCCN=C(N)N)C(=O)NCC(N)=O)NC(=O)[C@H](CC(N)=O)NC(=O)[C@H](CCC(N)=O)NC(=O)[C@H](Cc3ccccc3)NC2=O)cc1 (stereo not given in full) (Y(Me)FQNCPRG-NH2; linker N-5 via X1) = 1
CC(C)(C)C1CCC2(CC1)CC(=O)N[C@@H](Cc1ccc(O)cc1)C(=O)N[C@@H](Cc1ccccc1)C(=O)N[C@@H](CCC(N)=O)C(=O)N[C@@H](CC(N)=O)C(=O)N[C@H](C(=O)N1CCC[C@H]1C(=O)N[C@@H](CCCN=C(N)N)C(=O)NCC(N)=O)CSS2 (stereo not given in full) (YFQNCPRG-NH2; linker N-5 via X1) = 2
CN1CCC2(CC1)CC(=O)[C@H](Cc1ccc(O)cc1)N[C@@H](Cc1ccccc1)C(=O)N[C@@H](CCC(N)=O)C(=O)N[C@@H](CC(N)=O)C(=O)N[C@H](C(=O)N1CCC[C@H]1C(=O)N[C@@H](CCCN=C(N)N)C(=O)NCC(N)=O)CSS2 (H-[X5]QNCPRG-NH2; disulfide 1-4) = 0
COc1ccc(C[C@@H]2NC(=O)CC3(CCC(c4ccccc4)CC3)SSC[C@@H](C(=O)N3CCC[C@H]3C(=O)N[C@@H](CCCN=C(N)N)C(=O)NCC(N)=O)NC(=O)[C@H](CC(N)=O)NC(=O)[C@H](CCC(N)=O)NC(=O)[C@H](Cc3ccccc3)NC2=O)cc1 (stereo not given in full) (Y(Me)FQNCPRG-NH2; linker N-5 via X4) = 2

Request: Entry under review: COc1ccc(C[C@@H]2NC(=O)CC3(CCN(C)CC3)SSC[C@@H](C(=O)N3CCC[C@H]3C(=O)N[C@@H](CCCN=C(N)N)C(=O)NCC(N)=O)NC(=O)[C@H](CC(N)=O)NC(=O)[C@H](CCC(N)=O)NC(=O)[C@H](Cc3ccccc3)NC2=O)cc1 (Y(Me)FQNCPRG-NH2; linker N-5 via X3) . Reported ED?
Result: 3.6
